- protocol notes: Double-blind pharmacokinetic study of a single 1200 mg IV dose of oritavancin in healthy volunteers
- Format: in vivo
- measurement setup: human, plasma, Cohort 4: 1200 mg IV, HPBCD formulation, D5W 250 mL, 1 h infusion, healthy subjects, average
measure: Cmax (µg/mL)
Numbers only, in µg/mL.

# Cmax of `CN[C@H](CC(C)C)C(=O)N[C@H]1C(=O)N[C@@H](CC(N)=O)C(=O)N[C@H]2C(=O)N[C@H]3C(=O)N[C@H](C(=O)N[C@H](C(=O)O)c4cc(O)cc(O)c4-c4cc3ccc4O)[C@H](O[C@H]3C[C@](C)(N)[C@@H](O)[C@H](C)O3)c3ccc(c(Cl)c3)Oc3cc2cc(c3O[C@@H]2O[C@H](CO)[C@@H](O)[C@H](O)[C@H]2O[C@H]2C[C@](C)(NCc3ccc(-c4ccc(Cl)cc4)cc3)[C@@H](O)[C@H](C)O2)Oc2ccc(cc2Cl)[C@H]1O` = 202
